Test system: A2780 cells
Test: Cell proliferation assay (A2780)
Assay type: cell-based
Details: Homo sapiens, 168 h, 7 days
Experimental: Cells are counted, diluted to desired density and 40 μL of cell suspension is added into each 384-well tissue-culture treated plates. Plates are incubated in Tissue Culture incubator at 37° C./5% C02 overnight. Next day, 40 nl test compounds that are prepared from source plates are transferred to the seeded cells from overnight. Plates are incubated at 37° C./5% C02 for a total of 7 days. […]
IC50 listing for selected molecules.

molecule | IC50
CC(C)(C)OC(=O)N1CCCC(c2cccc(Oc3cnnc(N4CCC(OC5CCN(CC(=O)N6CCN(C(=O)c7cc(Cc8n[nH]c(=O)c9ccccc89)ccc7F)CC6)CC5)CC4)c3)c2)C1 (centres unmarked) | 10 to 100 nM
CCc1cccc(-c2cnc(C(=O)N3CCC(CN4CCN(CC(=O)N5CCN(C(=O)c6cc(Cc7n[nH]c(=O)c8ccccc78)ccc6F)CC5)CC4)CC3)c(C#N)c2)c1 | 10 to 100 nM
CCc1cccc(-c2cc(F)c(C(=O)N3CCC(CN4CCN(CC(=O)N5CCN(C(=O)c6cc(Cc7n[nH]c(=O)c8ccccc78)ccc6F)CC5)CC4)CC3)c(F)c2)c1 | 10 to 100 nM

Give the measured IC50 of CCc1cccc(-c2cnc(C(=O)N3CCC(OC4CCN(CC(=O)N5CCN(C(=O)c6cc(Cc7n[nH]c(=O)c8ccccc78)ccc6F)CC5)CC4)CC3)c(NC(C)=O)c2)c1 . 10 to 100 nM

// query IC50 value for entry CCc1cccc(-c2cnc(C(=O)NC34CCC(CN5CCN(CC(=O)N6CCN(C(=O)c7cc(Cc8n[nH]c(=O)c9ccccc89)ccc7F)CC6)CC5)(CC3)OC4)c(NC(=O)OC(C)(C)C)c2)c1 100 to 1000 nM

----------
molecules and their reported IC50
system: Poly/Mono-ADP Ribose in U2OS cells; experiment: PAR in cell western assay (parylation) in U2OS cells; type: cell-based; conditions: Homo sapiens; U2OS cells, 6 hrs, 2 mM H2O2; read-out: Parylation (U2OS)

What reported IC50 corresponds to CCc1cccc(-c2cnc(C(=O)N3CCC(CN4CCN(CC(=O)N5CCN(C(=O)c6cc(Cc7n[nH]c(=O)c8ccccc78)ccc6F)CC5)CC4)CC3)c(N)c2)c1 on Poly/Mono-ADP Ribose in U2OS cells? 100 to 1000 nM

Test system Poly/Mono-ADP Ribose in U2OS cells; read-out IC50; what value for O=C(N[C@@H](C(=O)N1CCC(OC2CCN(CC(=O)N3CCN(C(=O)c4cc(Cc5n[nH]c(=O)c6ccccc56)ccc4F)CC3)CC2)CC1)C1CCCCC1)c1cccc(C2CCCN(C(=O)C34CC(C3)C4)C2)c1F (stereo partly drawn) ? 100 to 1000 nM

Requested read-out IC50, target or system Poly/Mono-ADP Ribose in U2OS cells, entry O=C(N[C@@H](C(=O)N1CCC(OC2CCN(CC(=O)N3CCN(C(=O)c4cc(Cc5n[nH]c(=O)c6ccccc56)ccc4F)CC3)CC2)CC1)C1CCCCC1)c1cccc(C2CCCN(C(=O)C3CC3)C2)c1F (stereo partly drawn) 100 to 1000 nM

meta.source: patent US20250127907A1
